# credit: patent US9873709B2

- Test system: JAK1-dependent STAT6 phosphorylation downstream of IL-13 stimulation in TF-1 human erythroleukemia cells
- test.method.notes: cells
- stated.conditions: TF-1, read-out: IL-13-pSTAT6 IC50
endpoint.name: IC50 (nM)

{"columns": ["molecule", "test.value"],
 "data": [
  ["Cc1cncc(CNC(=O)c2ccc(Nc3nc4c(C5=CCN(C(=O)CCC(F)(F)F)CC5)cccn4n3)cc2)c1", 3.4],
  ["O=C(CCC(F)(F)F)N1CC=C(c2cccn3nc(Nc4ccc(C(=O)N5CCN(Cc6cccnc6)CC5)cc4)nc23)CC1", 4],
  ["Cc1ccc(CNC(=O)c2ccc(Nc3nc4c(C5=CCN(C(=O)CCC(F)(F)F)CC5)cccn4n3)cc2)cn1", 3.2],
  ["O=C(CCC(F)(F)F)N1CC=C(c2cccn3nc(Nc4ccc(C(=O)N5CCC(c6ccccn6)CC5)cc4)nc23)CC1", 8.3],
  ["CCOC(=O)N1CC=C(c2cccn3nc(Nc4ccc(C(=O)NCCN5CCNCC5)cc4)nc23)CC1", 233],
  ["CCOC(=O)N1CC=C(c2cccn3nc(Nc4ccc(C(=O)NCC(C)(C)N5CCOCC5)cc4)nc23)CC1", 6.7],
  ["CN1CCC(N(C)C(=O)c2ccc(Nc3nc4c(C5=CCN(C(=O)CCC(F)(F)F)CC5)cccn4n3)cc2)C1 (stereo not shown)", 8.7]
]}

###

# pIC50 per entry
- System: JAK1-dependent STAT6 phosphorylation downstream of IL-13 stimulation in TF-1 human erythroleukemia cells
- test.method.notes: cells
- stated.conditions: TF-1, read-out: IL-13-pSTAT6 IC50
pIC50: −log10 of the molar value.
endpoint.name: pIC50

{"columns": ["molecule", "endpoint.name", "test.value"],
 "data": [
  ["CCOC(=O)N1CC=C(c2cccn3nc(Nc4ccc(C(=O)N5CCC6CNCC65)cc4)nc23)CC1 (centres unmarked)", "pIC50", 7.12],
  ["NC1CN(C(=O)c2ccc(Nc3nc4c(C5=CCN(C(=O)CCC(F)(F)F)CC5)cccn4n3)cc2)C1", "pIC50", 7.16],
  ["CN1CC(NC(=O)c2ccc(Nc3nc4c(N5CCC(O)(c6ccc(Cl)cc6)CC5)cccn4n3)cc2)C1", "pIC50", 7.23],
  ["CCOC(=O)N1CC=C(c2cccn3nc(Nc4ccc(C(=O)N(C)C5CCN(C)CC5)cc4)nc23)CC1", "pIC50", 7.63],
  ["CCCC(=O)N1CC=C(c2cccn3nc(Nc4ccc(C(=O)N(C)C5CCN(C)CC5)cc4)nc23)CC1", "pIC50", 7.37],
  ["CC(C)CN1CCC(N(C)C(=O)Cn2cc(Nc3nc4c(C5=CCN(C(=O)CCC(F)(F)F)CC5)cccn4n3)cn2)CC1", "pIC50", 7.44],
  ["CN1CCC(N(C)C(=O)c2ccc(Nc3nc4c(C5=CCN(C(=O)C6C(C)(C)C6(C)C)CC5)cccn4n3)cc2)CC1", "pIC50", 7.35],
  ["O=C(CCC(F)(F)F)N1CC=C(c2cccn3nc(Nc4ccc(C(=O)N5CCC(N6CCOCC6)C5)cc4)nc23)CC1 (centres unmarked)", "pIC50", 8.05],
  ["CCOC(=O)N1CC=C(c2cccn3nc(Nc4ccc(C(=O)NC5CC6(CCNCC6)C5)cc4)nc23)CC1", "pIC50", 6.59],
  ["O=C(c1ccc(Nc2nc3c(N4CCC(O)(c5ccc(Cl)cc5)CC4)cccn3n2)cc1)N1CCOC2(CCCNC2)C1 (centres unmarked)", "pIC50", 7.51],
  ["CCOC(=O)N1CC=C(c2cccn3nc(Nc4ccc(C(=O)N5CCCC5c5ccncc5)cc4)nc23)CC1 (centres unmarked)", "pIC50", 7.77],
  ["CCOC(=O)N1CC=C(c2cccn3nc(Nc4ccc(C(=O)NCCC5CCCN5)cc4)nc23)CC1 (centres unmarked)", "pIC50", 6.64],
  ["O=C(CCC(F)(F)F)N1CC=C(c2cccn3nc(Nc4ccc(C(=O)N5CCCC6(CNCCO6)C5)cc4)nc23)CC1 (centres unmarked)", "pIC50", 7.39],
  ["O=C(CCC(F)(F)F)N1CC=C(c2cccn3nc(Nc4ccc(C(=O)N5CCOC6(CCCNC6)C5)cc4)nc23)CC1 (centres unmarked)", "pIC50", 6.65]
]}
